Hello, the source for this data is patent US20040192888A1, in case you need it.

Assay: Dissolution comparison of Nα-Nsc-amino acids and Nα-Fmoc-amino acids
Format: physicochemical
Set-up: key: ◯: dissolution; Δ: partial dissolution; X: no dissolution
Conditions: Fmoc-amino acid, 100 mg in 1 ml dichloromethane, heated at 40° C. for 5 minutes, then room temperature 5 minutes

molecule	Dissolved state, Fmoc, column B
O=C(N[C@@H](Cc1ccccc1)C(=O)O)OCC1c2ccccc2-c2ccccc21 [Fmoc-Phe, reference compound]	X
NC(=O)CC[C@H](NC(=O)OCC1c2ccccc2-c2ccccc21)C(=O)O [Fmoc-Gln, reference compound]	◯
CC(C)C[C@@H](NC(=O)OCC1c2ccccc2-c2ccccc21)C(=O)O [Fmoc-Leu, reference compound]	◯
CC(C)(C)OC(=O)NCCCCC(NC(=O)OCC1c2ccccc2-c2ccccc21)C(=O)O (stereo not shown) [Fmoc-Lys, reference compound]	◯
